Assay: 13-week rat toxicity and toxicokinetic study
Type: in vivo
Conditions: male, Crl:CD(SD)IGS BR, rat, in vivo, po, 10 mg/kg/day, males, 10 mg/kg/day, Day 0
experimental-endpoint: Tmax (h)
Give your result in h as a bare value.

Task item: Bench note: what Tmax did Clc1ccc([C@]23CNC[C@H]2C3)cc1Cl show?
Reply: 2

* * *

Experiment: in vivo
Conditions: male, Crl:CD-1(ICR) BR, mouse, po, 30 mg/kg/day, Tmax
experimental-endpoint: Tmax (h)
Give your result in h as a bare value.

Task item: Bench note: what Tmax did Clc1ccc([C@]23CNC[C@H]2C3)cc1Cl [amitifadine] show?
Reply: 1

* * *

Assay: Single rising oral dose (10-150 mg IR) safety, tolerance and pharmacokinetics in healthy male volunteers
Type: in vivo, human
Conditions: human, plasma, oral, 100 mg, individual subject; read-out: MRT0-∞
experimental-endpoint: MRT inf
Give your result as the value with the unit written after it.

Task item: Bench note: what MRT inf did Clc1ccc([C@]23CNC[C@H]2C3)cc1Cl [amitifadine] show?
Reply: 4.92 h

* * *

Test: 12-month dog toxicity and toxicokinetic study
Type: in vivo
Conditions: female, beagle, dog, plasma, po, 6 mg/kg/day, females, 6 mg/kg/day, Day 0; read-out: AUC0-24
experimental-endpoint: AUC(0-t)
Give your result as the value with the unit written after it.

Task item: Bench note: what AUC(0-t) did Clc1ccc([C@]23CNC[C@H]2C3)cc1Cl show?
Reply: 10800 ng·h/mL

* * *

Assay: 13-week rat toxicity and toxicokinetic study
Type: in vivo
Conditions: female, Crl:CD(SD)IGS BR, rat, in vivo, po, 60 mg/kg/day, females, 60 mg/kg/day, Day 0
experimental-endpoint: Cmax

Task item: Bench note: what Cmax did Clc1ccc([C@]23CNC[C@H]2C3)cc1Cl show?
Reply: 6600 ng/mL

* * *

Experiment: Single dose 300 mg / 450 mg pharmacokinetic, safety and tolerability study in healthy male and female subjects
Conditions: female, human, plasma, po, 450 mg
Known Cmax of a selection of compounds
Give your result in ng/mL as a bare value.

compound | experimental-endpoint | unit-name | numeric-result
Clc1ccc([C@]23CNC[C@H]2C3)cc1Cl | Cmax | ng/mL | 4540

Shifting focus to the compound that follows.
Task item: Bench note: what Cmax did O=C1NCC2(c3ccc(Cl)c(Cl)c3)CC12 (centres unmarked) show?
Reply: 3360

* * *

Experiment: in vivo
Conditions: female, Crl:CD-1(ICR) BR, mouse, po, 150 mg/kg/day, Tmax
experimental-endpoint: Tmax (h)
Give your result in h as a bare value.

Task item: Bench note: what Tmax did Clc1ccc([C@]23CNC[C@H]2C3)cc1Cl show?
Reply: 2

* * *

Assay: Single rising oral dose (10-150 mg IR) safety, tolerance and pharmacokinetics in healthy male volunteers
Assay type: in vivo, human
Settings: male, human, plasma, oral, 50 mg, Median; read-out: Tmax
experimental-endpoint: Tmax (h)
Give your result in h as a bare value.

Task item: Bench note: what Tmax did Clc1ccc([C@]23CNC[C@H]2C3)cc1Cl [amitifadine] show?
Reply: 1

* * *

Assay: 12-month dog toxicity and toxicokinetic study
Type: in vivo
Conditions: male, beagle, dog, plasma, po, 2 mg/kg/day, males, 2 mg/kg/day, Day 358
experimental-endpoint: Cmax (ng/mL)
Give your result in ng/mL as a bare value.

Task item: Bench note: what Cmax did Clc1ccc([C@]23CNC[C@H]2C3)cc1Cl [amitifadine] show?
Reply: 844

Origin of values: patent US20160346249A1
